Data origin, for the record: PubChem BioAssay AID1159580

experiment: chemical genetic growth profiling, strain panel (AID 1159580);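 note: tested at 20 µM; growth read once vehicle control cultures reached saturation at 30 °C; 1 = growth at the plate median or of vehicle wells; lower values mean less growth of the strain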; conditions: S. cerevisiae deletion strains, growth OD, locus YDL040C, strain nat1
Screen size: about 5,500 compounds; about 2,000 (36%) were called active. Another 18% or so got no clear call; they are omitted. Cut-off read from the data, not from the text of the source: active = normalized growth mostly below about 0.91 (no sharp cut-off); inconclusive = no clear call, values can overlap the other calls; inactive = mostly above about 0.92. Some of the results follow.
Returns: one label drawn from 1 = active, -1 = inactive

| COMPOUND | GROUP_LABEL |
| --- | --- |
| CC(=O)CC(c1ccccc1)c1c(O)c2ccccc2oc1=O (stereo not given) | -1 |

Inquiry: Tell me the recorded outcome of this test for CC1(C)O[C@@H]2CC3C4C[C@H](F)C5=CC(=O)C=CC5(C)C4C(O)CC3(C)[C@]2(C(=O)CO)O1 (stereo not given in full) .
Reply text: -1

Inquiry: Tell me the recorded outcome of this test for NCCc1ccc(O)c(O)c1 .
Reply text: -1

Inquiry: Tell me the recorded outcome of this test for CCCCCCCCCCCCCCCC[n+]1ccccc1 .
Reply text: 1

###

experiment: chemical genetic growth profiling, strain panel (AID 1159580);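 note: tested at 20 µM; growth read once vehicle control cultures reached saturation at 30 °C; 1 = growth at the plate median or of vehicle wells; lower values mean less growth of the strain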; conditions: S. cerevisiae deletion strains, growth OD, locus YPL241C, strain CIN2, active compounds read low
Screen size: about 5,500 compounds; about 2,000 (36%) were called active. Inconclusive results (about 18%) are left out. Some of the results follow.
# Lookup of reported normalized growth keyed by entry
Reply briefly: the number, and no unit.

Worked cases, normalized growth given:
| COMPOUND | EXPERIMENTAL_RESULT |
| --- | --- |
| CC1=CCc2c(cc3oc(C)cc(=O)c3c2O)OC1 | 0.973 |
| CC(C)(C)OC(=O)NC1CCN(C(=O)c2ccc(Cl)cc2Cl)CC1 | 1.01 |
| CC(C)(Oc1ccc(Cl)cc1)C(=O)O | 0.994 |
| O=C(O)C1CN(CCCP(=O)(O)O)CCN1 (configuration not stated) | 0.984 |

Inquiry: Give the value of normalized growth reported for the following: Cc1cc2cc3c(C)cc(=O)oc3c(C)c2o1
Reply text: 0.985

Inquiry: Give the value of normalized growth reported for the following: CN1CCOC(c2ccccc2)c2ccccc2C1 (configuration not stated)
Reply text: 1.01

Inquiry: Give the value of normalized growth reported for the following: CC(N)Cc1ccc(O)cc1 (configuration not stated)
Reply text: 1.01

Inquiry: Give the value of normalized growth reported for the following: COc1ccc(-c2coc3cc(OC)cc(O)c3c2=O)cc1
Reply text: 0.987

Inquiry: Give the value of normalized growth reported for the following: Cc1ccc(COc2ccc(C)nc2[N+](=O)[O-])cc1
Reply text: 0.71

Inquiry: Give the value of normalized growth reported for the following: Cc1cc(C(F)(F)F)c(C#N)c(=O)[nH]1
Reply text: 0.941

Inquiry: Give the value of normalized growth reported for the following: O=c1oc2ccccc2c(O)c1Cc1c(O)c2ccccc2oc1=O
Reply text: 0.987

Inquiry: Give the value of normalized growth reported for the following: Cc1coc2ccccc2c1=O
Reply text: 1

Inquiry: Give the value of normalized growth reported for the following: Cc1cc(NC(=O)Nc2ccc3c(ccn3C)c2)sn1
Reply text: 0.992

Inquiry: Give the value of normalized growth reported for the following: Cc1cc(Br)c(OCC(=O)NN)c2c1CCC2
Reply text: 1.02

Inquiry: Give the value of normalized growth reported for the following: CC(C)[C@]12O[C@H]1[C@@H]1O[C@@]13[C@@]1(C)CCC4=C(COC4=O)[C@@H]1C[C@@H]1O[C@@]13C2=O
Reply text: 1.01

Inquiry: Give the value of normalized growth reported for the following: C=CCCCCCCCCCCCC(O)CC(O)CO (configuration not stated) (tested in a mixture with another compound)
Reply text: 0.114

Inquiry: Give the value of normalized growth reported for the following: Cc1ccc(OCC(=O)NN)c2c1CCC2
Reply text: 1.01

Inquiry: Give the value of normalized growth reported for the following: CCOC(=O)c1ccc2oc3ccc(O)cc3c(=O)c2c1
Reply text: 0.908

Inquiry: Give the value of normalized growth reported for the following: CCOC(=O)CSc1nnc(-c2cc(C(C)(C)C)nn2Cc2cccc(C)c2)n1C1CCCCC1
Reply text: 0.968

Inquiry: Give the value of normalized growth reported for the following: COc1cc(O)c2c(=O)c(-c3ccc(O)cc3)coc2c1
Reply text: 0.97

Inquiry: Give the value of normalized growth reported for the following: CC1(C)O[C@@H]2CC3C4CCC5=CC(=O)C=C[C@]5(C)[C@@]4(F)[C@@H](O)C[C@]3(C)[C@]2(C(=O)CO)O1 (some centres not stated)
Reply text: 1.01
